- systemTested: MT2 (Homo sapiens, UniProt P49286)
- testDetails: [3H]melatonin competition radioligand binding, MT2 membranes
- Design: expressed in transfected cells; host or cells: HEK293T (ATCC CRL-11268), transient transfection
- conditionParameters: read-out: MT2 pKi ± SEM (converted)
propertyName: Ki (nM)

- COC(=O)c1[nH]c2cc(OC)ccc2c1N: 2750
- COc1cccc(CNc2nc(C3CC3)no2)c1: 3550
- COc1ccc2[nH]cc(CCNC(N)=O)c2c1 [Compound 28, [2-(5-methoxy-1H-indol-3-yl)ethyl]urea]: 23.4
- COc1cccc(CNC(=O)c2ccno2)c1: 4270
- CC(=O)NCC1CCCCN1c1ccnc(C)n1 (centres unmarked): 2450
- COc1cccc([C@@H]2C[C@H]2CNC(=O)C(N)=O)c1 (racemic): 2750

[A] Nc1cc(=O)[nH]c(=S)n1CCc1ccccc1
[B] COc1cccc(Cn2c(N)cc(=O)[nH]c2=O)c1
[C] CC(=O)c1sc2nc3c(cc2c1N)CCC3
[D] NC(=O)c1cc(C(=O)c2ccccc2Cl)c[nH]1
[E] COc1ccnc(N(C)CCNC(C)=O)n1
Hi! Can you put these in order of Ki, lowest number first? # list labels per requested ordering
E, D, A, C, B
(E: 123 nM, D: 1230 nM, A: 3240 nM, C: 5500 nM, B: 11200 nM)

----------
- systemTested: MT2 (Homo sapiens, UniProt P49286)
- Sequence (P49286 1-362): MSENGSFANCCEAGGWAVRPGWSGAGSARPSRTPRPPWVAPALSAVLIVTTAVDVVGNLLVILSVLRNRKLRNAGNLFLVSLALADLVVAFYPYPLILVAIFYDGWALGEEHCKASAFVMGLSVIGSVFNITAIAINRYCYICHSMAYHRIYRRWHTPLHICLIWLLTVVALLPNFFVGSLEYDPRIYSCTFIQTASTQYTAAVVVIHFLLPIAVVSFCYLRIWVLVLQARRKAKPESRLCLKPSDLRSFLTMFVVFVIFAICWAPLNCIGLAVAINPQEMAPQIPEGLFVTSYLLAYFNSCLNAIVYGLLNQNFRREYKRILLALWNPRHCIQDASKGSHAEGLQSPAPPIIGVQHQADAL
- testDetails: GloSensor Gi/o-mediated cAMP production inhibition assay, MT2
- Type: cell-based
- Design: expressed in transfected cells; host or cells: HEK293T (ATCC CRL-11268), transient transfection
- conditionParameters: MT2, activation compared to melatonin; read-out: MT2 Emax ± SEM
propertyName: Emax (%)

• COc1cccc(Cn2c(N)cc(=O)[nH]c2=O)c1 [Compound 44] = 88.9
• COc1cccc([C@@H]2C[C@H]2CNC(=O)C(N)=O)c1 (racemic) [Compound 23] = 91.7
• CC(=O)c1sc2nc3c(cc2c1N)CCC3 [Compound 45] = 75

----------
- systemTested: MT1 (Homo sapiens, UniProt P48039)
- Construct: expressed in transfected cells; host or cells: HEK293T (ATCC CRL-11268), transient transfection
- Sequence (P48039 whole entry): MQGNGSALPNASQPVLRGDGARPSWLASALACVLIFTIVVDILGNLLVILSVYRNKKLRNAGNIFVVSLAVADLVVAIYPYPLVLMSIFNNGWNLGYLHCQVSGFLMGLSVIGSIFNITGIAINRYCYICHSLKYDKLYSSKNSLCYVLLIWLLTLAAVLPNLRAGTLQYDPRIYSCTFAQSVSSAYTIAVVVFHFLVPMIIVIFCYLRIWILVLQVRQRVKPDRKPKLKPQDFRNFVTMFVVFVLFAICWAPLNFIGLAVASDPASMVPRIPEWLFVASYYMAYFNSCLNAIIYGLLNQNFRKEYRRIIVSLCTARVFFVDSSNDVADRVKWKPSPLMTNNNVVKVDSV
- testDetails: [3H]melatonin competition radioligand binding, MT1 membranes
- conditionParameters: read-out: MT1 pKi ± SEM (converted)
propertyName: Ki (µM)

# annotated cases, reported Ki shown
- COC(=O)c1[nH]c2cc(OC)ccc2c1N: 9.33
- COc1ccnc(N(C)CCNC(C)=O)n1: 0.49

[1] COc1cccc(Cn2c(N)cc(=O)[nH]c2=O)c1
[2] CC(=O)c1sc2nc3c(cc2c1N)CCC3
[3] CC(=O)NCC1CCCCN1c1ccnc(C)n1 (centres unmarked)
[4] COc1cccc([C@@H]2C[C@H]2CNC(=O)C(N)=O)c1 (racemic)
[5] COc1cccc(CNC(=O)c2ccno2)c1
Sort by Ki, descending. Kindly provide the labels arranged according to the requested ordering.
1, 2, 5, 3, 4
(1: 64.6 µM, 2: 28.8 µM, 5: 14.5 µM, 3: 6.03 µM, 4: 3.8 µM)

----------
- systemTested: MT1 (Homo sapiens)
- Construct: expressed in transfected cells; host or cells: HEK293T (ATCC CRL-11268), transient transfection
- testDetails: GloSensor Gi/o-mediated cAMP production inhibition assay, MT1
- Format: cell-based
- conditionParameters: Gi/o mediated; SEM, N = 3; read-out: MT1 pEC50 ± SEM (converted)
propertyName: EC50 (nM)

Some solved entries appear below for comparison.
- COc1ccc2[nH]cc(CCNC(N)=O)c2c1 [Compound 28, [2-(5-methoxy-1H-indol-3-yl)ethyl]urea]: 0.0407
- CC(=O)NCC1CCCCN1c1ccnc(C)n1 (stereo not shown): 148
- COc1cccc([C@@H]2C[C@H]2CNC(=O)C(N)=O)c1 (racemic): 69.2

[P] COc1ccnc(N(C)CCNC(C)=O)n1
[Q] COc1cccc(CNC(=O)c2ccno2)c1
[R] COC(=O)c1[nH]c2cc(OC)ccc2c1N
[S] Nc1cc(=O)[nH]c(=S)n1CCc1ccccc1
Rank items: key EC50, increasing. Write the labels in rank order as requested.
P, R, Q, S

----------
- systemTested: MT2 (Homo sapiens, UniProt P49286)
- testDetails: GloSensor Gi/o-mediated cAMP production inhibition assay, MT2
- Assay type: cell-based
- Parameters: expressed in transfected cells; host or cells: HEK293T (ATCC CRL-11268), transient transfection
- conditionParameters: MT2, activation compared to melatonin; read-out: MT2 Emax ± SEM
propertyName: Emax (%)

- NC(=O)c1cc(C(=O)c2ccccc2Cl)c[nH]1 [Compound 47]: 91.7
- COc1ccnc(N(C)CCNC(C)=O)n1 [Compound 21]: 86.1
- COc1cccc(CNc2nc(C3CC3)no2)c1 [Compound 37]: 61.1
- COC(=O)c1[nH]c2cc(OC)ccc2c1N [Compound 54]: 75

----------
- systemTested: MT2 (Homo sapiens, UniProt P49286)
- testDetails: GloSensor Gi/o-mediated cAMP production inhibition assay, MT2
- Assay type: cell-based
- Parameters: expressed in transfected cells; host or cells: HEK293T (ATCC CRL-11268), transient transfection
- conditionParameters: Antilog (log(Emax/EC50) MT2 - log (Emax/EC50) MT1); values below 1 = MT1 selectivity
propertyName: MT2/MT1 Selectivity (fold)

// solved cases for MT2/MT1 Selectivity follow
• COc1ccc2[nH]cc(CCNC(N)=O)c2c1 [Compound 28, [2-(5-methoxy-1H-indol-3-yl)ethyl]urea] = 0.7
• COc1cccc([C@@H]2C[C@H]2CNC(=O)C(N)=O)c1 (racemic) = 2.7

[a] CC(=O)NCC1CCCCN1c1ccnc(C)n1 (stereo not shown)
[b] Nc1cc(=O)[nH]c(=S)n1CCc1ccccc1
[c] COc1cccc(CNC(=O)c2ccno2)c1
[d] COC(=O)c1[nH]c2cc(OC)ccc2c1N
Rank entries according to their MT2/MT1 Selectivity, from the largest number down. # the answer lists labels in the order requested
b, d, c, a

----------
- systemTested: MT2 (Homo sapiens)
- Sequence (P49286 1-362): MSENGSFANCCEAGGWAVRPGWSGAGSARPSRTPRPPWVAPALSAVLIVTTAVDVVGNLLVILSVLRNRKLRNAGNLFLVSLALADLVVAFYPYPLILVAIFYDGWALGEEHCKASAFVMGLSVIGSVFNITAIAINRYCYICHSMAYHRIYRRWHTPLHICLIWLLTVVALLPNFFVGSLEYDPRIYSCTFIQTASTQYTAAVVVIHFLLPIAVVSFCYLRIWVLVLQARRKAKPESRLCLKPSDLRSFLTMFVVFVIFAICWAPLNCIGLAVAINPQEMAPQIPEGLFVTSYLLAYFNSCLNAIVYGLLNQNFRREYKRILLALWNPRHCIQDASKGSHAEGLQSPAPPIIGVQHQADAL
- testDetails: GloSensor Gi/o-mediated cAMP production inhibition assay, MT2
- Format: cell-based
- Design: expressed in transfected cells; host or cells: HEK293T (ATCC CRL-11268), transient transfection
- conditionParameters: Gi/o mediated; read-out: MT2 EC50
pEC50: −log10 of the molar value.
propertyName: pEC50

* COc1ccc2[nH]cc(CCNC(N)=O)c2c1 [Compound 28, [2-(5-methoxy-1H-indol-3-yl)ethyl]urea] | 10.40

[1] COc1cccc(CNc2nc(C3CC3)no2)c1 [Compound 37]
[2] COc1cccc([C@@H]2C[C@H]2CNC(=O)C(N)=O)c1 (racemic) [Compound 23]
Given 1 and given 2 , which shows the smaller recorded pEC50? In your reply, give the label of the chosen option.
1

----------
- systemTested: MT1 (Homo sapiens, UniProt P48039)
- Construct: expressed in transfected cells; host or cells: HEK293T (ATCC CRL-11268), transient transfection
- testDetails: GloSensor Gi/o-mediated cAMP production inhibition assay, MT1
- Type: cell-based
- conditionParameters: Gi/o mediated; read-out: MT1 EC50
- Experimental: Briefly, HEK293 T cells (as above) were transiently co-transfected with receptor (MT1 or MT2) and GloSensor cAMP (Promega) plasmids overnight, plated in Poly-L-Lysine coated 384-well white clear bottom plates in DMEM + 1% dialyzed FBS. Cells were used for assays at a minimum of 6 hr after plating. […] The plates were counted for luminescence after 25 min in a luminescence plate reader. Results were analyzed using GraphPad Prism 7.0.
propertyName: EC50 (µM)

[A] COc1cccc(Cn2c(N)cc(=O)[nH]c2=O)c1
[B] NC(=O)c1cc(C(=O)c2ccccc2Cl)c[nH]1
Return label of the item with the larger EC50. Candidates: A , B . Your answer should be the label of the entry you select.
A
(A: 57.5 µM, B: 2.34 µM)

[P] Nc1cc(=O)[nH]c(=S)n1CCc1ccccc1
[Q] CC(=O)c1sc2nc3c(cc2c1N)CCC3
Please indicate which has the smaller reported EC50: P , or Q . Provide the label of your selected option as the answer.
Q
